Cytochrome P450 2D6 (Homo sapiens) pIC50 data
Sequence (P10635 whole entry): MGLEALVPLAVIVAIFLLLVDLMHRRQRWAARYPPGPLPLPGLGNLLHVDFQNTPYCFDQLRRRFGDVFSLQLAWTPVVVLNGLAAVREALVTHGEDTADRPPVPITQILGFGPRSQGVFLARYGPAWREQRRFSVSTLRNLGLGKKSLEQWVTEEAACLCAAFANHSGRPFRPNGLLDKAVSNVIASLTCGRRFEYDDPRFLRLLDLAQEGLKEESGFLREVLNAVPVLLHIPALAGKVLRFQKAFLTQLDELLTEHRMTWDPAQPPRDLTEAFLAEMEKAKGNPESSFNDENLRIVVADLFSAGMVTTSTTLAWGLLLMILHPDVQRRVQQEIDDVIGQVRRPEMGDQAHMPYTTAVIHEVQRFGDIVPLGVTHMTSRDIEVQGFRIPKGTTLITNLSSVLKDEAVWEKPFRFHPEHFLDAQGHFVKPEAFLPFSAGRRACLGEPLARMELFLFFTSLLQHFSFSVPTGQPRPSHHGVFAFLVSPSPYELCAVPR
pIC50: −log10 of the molar value.

Problem: Requested field: pIC50. Item: O=C(O)CCc1ccc(Cn2cccn2)cc1OCCc1ccc2ccccc2c1
Solution: < 4.52

Problem: Another compound: O=C(O)/C=C/c1ccc(Cn2cccn2)cc1OCCc1ccc2ccccc2c1
Solution: < 4.52

###

Target: Prostaglandin E2 receptor EP3 subtype (Mus musculus)
Sequence (P30557 whole entry): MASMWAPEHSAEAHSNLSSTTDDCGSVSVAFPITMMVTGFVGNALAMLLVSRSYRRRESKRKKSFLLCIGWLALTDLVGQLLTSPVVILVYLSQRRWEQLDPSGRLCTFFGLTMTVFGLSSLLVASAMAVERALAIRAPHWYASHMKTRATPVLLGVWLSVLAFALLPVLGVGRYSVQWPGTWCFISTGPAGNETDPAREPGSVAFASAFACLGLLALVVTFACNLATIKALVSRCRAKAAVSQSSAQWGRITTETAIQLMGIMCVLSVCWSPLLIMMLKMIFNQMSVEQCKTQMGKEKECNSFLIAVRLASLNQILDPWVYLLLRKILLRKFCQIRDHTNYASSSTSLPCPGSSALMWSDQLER
Test: Antagonist activity at mouse EP3alpha receptor expressed in CHo cells assessed as inhibition of PGE2-stimulated intracellular calcium concentration
ATTRIBUTE_MEASURED: pIC50
Please keep in mind that pIC50 is minus log10 of the molar concentration; only the number is needed.

// below: answered compounds
COMPOUND: Cc1ccc(/C=C/C(=O)O)c(OCCC2(C)CCc3c(C)c(O)c(C)c(C)c3O2)c1 (stereo not given)
TGT: Prostaglandin E2 receptor EP3 subtype (Mus musculus)
pIC50: 5.51

COMPOUND: O=C(O)C#Cc1ccc(Cn2cccn2)cc1OCCc1ccc2ccccc2c1
TGT: Prostaglandin E2 receptor EP3 subtype (Mus musculus)
pIC50: 5.92

COMPOUND: O=C(O)/C=C/c1ccc(COc2ccccc2)cc1OCCc1ccc2ccccc2c1
TGT: Prostaglandin E2 receptor EP3 subtype (Mus musculus)
pIC50: 6.85

Problem: Requested field: pIC50. Item: O=C(O)/C=C/c1ccc(OCc2ccccc2)cc1OCCc1ccc2ccccc2c1
Solution: 5.82

Problem: Another compound: Cc1c(C)c2c(c(C)c1O)CCC(C)(CCOc1cc(Cn3ccnc3)ccc1/C=C/C(=O)O)O2 (stereo not given)
Solution: 6.22

Problem: Another compound: O=C(O)CCCc1ccc(Cn2cccn2)cc1OCCc1ccc2ccccc2c1
Solution: 6.34

Problem: Another compound: O=C(O)COc1ccc(Cn2cccn2)cc1OCCc1ccc2ccccc2c1
Solution: 5.59

Problem: Another compound: O=C(O)/C=C/c1ccc(CN2CCCC2=O)cc1OCCc1ccc2ccccc2c1
Solution: 6.24

Problem: Another compound: O=C(O)/C=C/c1ccc(Cn2cccn2)cc1OCCc1ccc2ccccc2c1
Solution: 7.14

###

Prostaglandin E2 receptor EP2 subtype (Mus musculus) pKi data
Sequence (Q62053 whole entry): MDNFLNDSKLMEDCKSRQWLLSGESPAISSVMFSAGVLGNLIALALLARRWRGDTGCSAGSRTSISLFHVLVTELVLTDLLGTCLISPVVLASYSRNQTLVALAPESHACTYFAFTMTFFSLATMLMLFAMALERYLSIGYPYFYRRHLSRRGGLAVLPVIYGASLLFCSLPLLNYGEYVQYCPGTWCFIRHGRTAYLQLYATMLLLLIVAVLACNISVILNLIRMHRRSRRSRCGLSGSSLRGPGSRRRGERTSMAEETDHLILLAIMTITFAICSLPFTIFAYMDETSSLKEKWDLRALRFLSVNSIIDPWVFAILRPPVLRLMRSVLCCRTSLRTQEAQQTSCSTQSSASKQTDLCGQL
Please keep in mind that pKi is minus log10 of the molar concentration; only the number is needed.

MOLECULE: O=C(O)/C=C/c1ccc(OCc2ccccc2)cc1OCCc1ccc2ccccc2c1
RESULT_VALUE: 5.92
--
MOLECULE: Cc1c(C)c2c(c(C)c1O)CCC(C)(CCOc1ccccc1/C=C/C(=O)O)O2 (stereo not given)
RESULT_VALUE: 5.92

Field: next molecule
Problem: Requested field: pKi. Item: O=C(O)/C=C/c1ccc(Cn2cccn2)cc1OCCc1ccc2ccccc2c1
Solution: 5.48

###

Test: Oral bioavailability in rat at 10 mg/kg
Type: ADME, organism-based
Conditions: in vivo
ATTRIBUTE_MEASURED: bioavailability (%)
Lab book: enter the figure in %, no units written.

Problem: Requested field: bioavailability. Item: O=C([O-])CCc1ccc(Cn2cccn2)cc1OCCc1ccc2ccccc2c1.[Na+]
Solution: 53

###

Listed below: pKi values for each entry.
Biological target: Prostaglandin E2 receptor EP1 subtype (Mus musculus)
Sequence (P35375 whole entry): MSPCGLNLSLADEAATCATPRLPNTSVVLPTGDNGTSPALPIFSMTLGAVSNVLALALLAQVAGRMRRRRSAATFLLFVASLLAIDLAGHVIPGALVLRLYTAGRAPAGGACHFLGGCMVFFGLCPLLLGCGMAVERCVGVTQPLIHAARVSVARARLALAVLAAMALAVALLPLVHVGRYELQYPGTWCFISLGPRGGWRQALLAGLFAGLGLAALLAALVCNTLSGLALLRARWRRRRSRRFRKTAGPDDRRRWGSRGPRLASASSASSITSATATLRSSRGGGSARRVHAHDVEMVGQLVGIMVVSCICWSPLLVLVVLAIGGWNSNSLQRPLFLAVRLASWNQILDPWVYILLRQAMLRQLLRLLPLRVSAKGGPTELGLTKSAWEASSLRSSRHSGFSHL
pKi: −log10 of the molar value.

// below: answered compounds
COMPOUND: O=C(O)C#Cc1ccc(Cn2cccn2)cc1OCCc1ccc2ccccc2c1
pKi: < 5.00
--
COMPOUND: O=C(O)/C=C/c1ccc(Cn2ccnc2)cc1OCCCOc1ccccc1
pKi: < 5.00
--
COMPOUND: O=C(O)CCc1ccc(Cn2cccn2)cc1OCCc1ccc2ccccc2c1
pKi: 5.15
--
COMPOUND: Cc1c(C)c2c(c(C)c1O)CCC(C)(CCOc1ccccc1/C=C/C(=O)O)O2 (stereo not given)
pKi: < 5.00

Field: next compound
Problem: Requested field: pKi. Item: O=C(O)/C=C/c1ccc(OCc2ccccc2)cc1OCCc1ccc2ccccc2c1
Solution: < 5.00

###

Prostaglandin E2 receptor EP4 subtype (Mus musculus, UniProt P32240) Ki data
Sequence (P32240 whole entry): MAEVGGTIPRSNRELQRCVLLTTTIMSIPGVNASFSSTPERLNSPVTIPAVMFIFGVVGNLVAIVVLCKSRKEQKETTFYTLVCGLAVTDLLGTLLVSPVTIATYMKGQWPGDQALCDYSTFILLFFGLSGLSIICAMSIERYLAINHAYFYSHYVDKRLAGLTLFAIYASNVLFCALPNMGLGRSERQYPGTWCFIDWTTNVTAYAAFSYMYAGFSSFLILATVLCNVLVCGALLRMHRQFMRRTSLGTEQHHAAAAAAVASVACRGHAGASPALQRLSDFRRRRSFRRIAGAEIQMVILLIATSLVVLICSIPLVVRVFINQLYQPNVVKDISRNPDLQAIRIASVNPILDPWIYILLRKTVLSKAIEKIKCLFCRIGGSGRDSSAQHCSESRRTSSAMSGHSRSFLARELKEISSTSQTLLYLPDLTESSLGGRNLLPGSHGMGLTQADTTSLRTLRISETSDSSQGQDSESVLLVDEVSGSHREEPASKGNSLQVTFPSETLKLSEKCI

COMPOUND: O=C(O)/C=C/c1ccc(Cn2ccnc2)cc1OCCc1cc2ccccc2o1
TGT: Prostaglandin E2 receptor EP4 subtype (Mus musculus, UniProt P32240)
Ki: 4.3 µM

Field: next compound
Problem: Requested field: Ki. Item: COc1ccc(/C=C/C(=O)O)c(OCCC2(C)CCc3c(C)c(O)c(C)c(C)c3O2)c1 (stereo not given)
Solution: 0.92 µM

###

Biological target: Prostaglandin E2 receptor EP4 subtype (Mus musculus, UniProt P32240)
ATTRIBUTE_MEASURED: Ki

// below: answered compounds
SMILES: O=C(O)/C=C/c1ccc(CN2CCCC2=O)cc1OCCc1ccc2ccccc2c1
Ki: 2.3 µM

SMILES: O=C(O)/C=C/c1ccc(OCc2ccccc2)cc1OCCc1ccc2ccccc2c1
Ki: > 10 µM

Problem: Record O=C(O)/C=C/c1ccc(Cn2ccnc2)cc1OCCCOc1ccccc1 : what is its Ki with Prostaglandin E2 receptor EP4 subtype (Mus musculus, UniProt P32240)?
Solution: > 10 µM
